biological target: Proteasome subunit beta (Trypanosoma cruzi) (UniProt O96673); assay: Trypanosoma cruzi proteasome chymotrypsin-like activity (TcProtChymo) assay.; format: functional; set-up: scale not given: in the data most compounds retested in dose-response had high values; conditions: 9.37 µM
Sequence (O96673 as listed by the source): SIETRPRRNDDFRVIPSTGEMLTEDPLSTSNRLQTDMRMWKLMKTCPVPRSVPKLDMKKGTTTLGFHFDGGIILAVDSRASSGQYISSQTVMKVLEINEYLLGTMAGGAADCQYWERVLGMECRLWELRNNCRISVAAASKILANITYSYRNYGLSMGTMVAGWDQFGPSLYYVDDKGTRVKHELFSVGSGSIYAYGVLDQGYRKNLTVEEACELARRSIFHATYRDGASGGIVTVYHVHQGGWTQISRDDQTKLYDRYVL
Percent Effect values for the compounds below.
# number only, unit % dropped from output

c1ccc(-n2ncc(CNCC3CCCN3c3cccnn3)n2)cc1 (centres undefined)	-3.64
O=S(=O)(Cc1ccccc1)NCC1CCN(c2cnccn2)CC1	10.4
CCn1ccnc1CN1CCN(CC(=O)NC(=O)NC2CC2)CC1	16.5
CNc1cc(C2CCCN2Cc2ccccc2C(=O)O)ccn1 (centres undefined)	7.33
COc1c(C)cnc(CN2CCCCC2Cn2nc(C)nc2C)c1C (centres undefined)	14.8
O=C(c1ccc(Cl)o1)N1CCCN(Cc2cscn2)CC1	16.1

For CN(C)C(=O)CN1CCCCC1c1nc(N)ncc1-c1ccccc1 (centres undefined) the compound record lists Percent Effect as 2.56

Form field Percent Effect, entry "CC(C)Nc1nc2c(cc1C(=O)N(C)C)CCNCC2" : 5.47

----------
biological target: Ubiquitin-activating enzyme e1, putative (Leishmania donovani (strain BPK282A1)) (UniProt E9BSI1); assay: Leishmania donovani Ubiquitin Activating Enzyme (LdE1); assay type: functional; set-up: scale not given: direction of the effect not stated beside the values; conditions: 30 µM
Sequence (E9BSI1 as listed by the source): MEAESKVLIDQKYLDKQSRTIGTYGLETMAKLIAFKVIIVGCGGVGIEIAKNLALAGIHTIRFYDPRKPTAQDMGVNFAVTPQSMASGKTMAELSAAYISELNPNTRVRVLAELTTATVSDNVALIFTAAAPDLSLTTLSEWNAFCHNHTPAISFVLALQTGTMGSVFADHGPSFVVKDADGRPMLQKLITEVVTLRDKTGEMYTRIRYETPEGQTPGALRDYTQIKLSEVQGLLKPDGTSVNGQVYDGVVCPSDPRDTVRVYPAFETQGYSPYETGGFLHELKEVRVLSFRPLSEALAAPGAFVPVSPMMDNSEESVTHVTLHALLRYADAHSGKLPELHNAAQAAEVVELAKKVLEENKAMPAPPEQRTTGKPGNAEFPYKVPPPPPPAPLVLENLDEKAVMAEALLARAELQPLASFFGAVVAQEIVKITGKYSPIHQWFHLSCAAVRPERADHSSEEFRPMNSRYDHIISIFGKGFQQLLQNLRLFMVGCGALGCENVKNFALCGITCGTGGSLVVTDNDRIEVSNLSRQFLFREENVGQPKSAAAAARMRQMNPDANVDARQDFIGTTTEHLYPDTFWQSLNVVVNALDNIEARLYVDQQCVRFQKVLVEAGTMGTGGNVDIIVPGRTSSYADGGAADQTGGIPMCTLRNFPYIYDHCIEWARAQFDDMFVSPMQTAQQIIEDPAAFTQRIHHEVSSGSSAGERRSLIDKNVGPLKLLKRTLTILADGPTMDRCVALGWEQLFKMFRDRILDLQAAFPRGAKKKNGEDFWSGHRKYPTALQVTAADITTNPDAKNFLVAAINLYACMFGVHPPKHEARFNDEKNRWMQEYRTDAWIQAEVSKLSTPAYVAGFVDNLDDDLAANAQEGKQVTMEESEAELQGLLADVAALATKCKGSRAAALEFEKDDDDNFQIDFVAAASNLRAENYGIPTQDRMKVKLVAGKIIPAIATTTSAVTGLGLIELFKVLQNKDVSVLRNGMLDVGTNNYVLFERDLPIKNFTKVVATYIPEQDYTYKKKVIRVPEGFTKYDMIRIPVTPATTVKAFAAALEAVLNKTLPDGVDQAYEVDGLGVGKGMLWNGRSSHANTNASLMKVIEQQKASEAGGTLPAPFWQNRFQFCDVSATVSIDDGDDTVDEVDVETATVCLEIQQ
Potency and affinity values are given separately.
Quantity: Percent Effect (%)
Answer in %, number only, no unit symbol.

These recorded examples may help you get a feel for the data.
CNc1oc(-c2cc(S(=O)(=O)N3CCCCCC3)c(C)o2)nc1C#N	-9.33
COc1ccnc(N2CCN(C(=O)c3csc(C(C)C)n3)CC2)n1	10.8
Cc1noc(C(C)C)c1C(=O)NCc1cc(F)cc(F)c1	15.6
CCOCC(=O)N1C[C@@H]2COC[C@H](c3nc(C)no3)[C@@H]2C1	-5.41

The measured Percent Effect associated with CN1CC(=O)N(c2cccc(F)c2)CC12CCNC2 (configuration not stated) reads 0

In plain terms, "CC(C)OCCOCc1cccc(NC(=O)NCc2ccncc2)c1" has a documented Percent Effect of 13

Recorded result, CN(CCc1cccs1)C1CCCN(Cc2noc(C3CC3)n2)C1 (configuration not stated) , Percent Effect: 4.17

// Cc1cc(=O)n(CC(=O)NCC2CCCO2)c(-c2cccc(Cl)c2)n1 (configuration not stated) : Percent Effect value = 18.2

Given item "Cc1ccc2cnn(CCC(=O)Nc3c(C)nn(C)c3C)c2c1" , the value recorded as its Percent Effect is 5.2

// "CNC(=O)CSc1cnn(CC(=O)Nc2cccc(Cl)c2C)c(=O)c1Cl" : Percent Effect value = 5.48

Reported Percent Effect for COc1ccc(C2CCCN2C(=O)c2cc3c([nH]c2=O)CCC3)cc1 (configuration not stated) was 5.41

For reference, reported Percent Effect for "Cc1cnn(C2CN(CC(=O)NCCc3ccccc3)C2)c1" stands at -10.5

// Percent Effect lookup, compound = "COCC(=O)N1CC[C@@H]2O[C@@H](COCc3csc(C)n3)CC[C@@H]21" , result: 13.5

Form: compound = CC(NC(=O)COc1nc(C(C)(C)C)no1)c1ccco1 (configuration not stated) ; Percent Effect = 2.7

The value of Percent Effect measured for the compound O=C1CCC(C(=O)NCc2nncn2-c2ccccc2)CN1 (configuration not stated) turned out to be 10.8

Note to self: Percent Effect recorded for "Cc1cc2c(=O)n3c(nc2s1)CCN(C(=O)c1cnn(C)c1C)CC3" was -17.6

// Cn1cc(C(=O)CC2CCCN2C(=O)c2cncc3ccccc23)cn1 (configuration not stated) : Percent Effect value = 6.33
